Provenance of the data: patent US20250206841A1

- system-name: T1, human Trop-2 expressed on cell surface (human, UniProt P09758 27-323)
- T1 sequence (looked up): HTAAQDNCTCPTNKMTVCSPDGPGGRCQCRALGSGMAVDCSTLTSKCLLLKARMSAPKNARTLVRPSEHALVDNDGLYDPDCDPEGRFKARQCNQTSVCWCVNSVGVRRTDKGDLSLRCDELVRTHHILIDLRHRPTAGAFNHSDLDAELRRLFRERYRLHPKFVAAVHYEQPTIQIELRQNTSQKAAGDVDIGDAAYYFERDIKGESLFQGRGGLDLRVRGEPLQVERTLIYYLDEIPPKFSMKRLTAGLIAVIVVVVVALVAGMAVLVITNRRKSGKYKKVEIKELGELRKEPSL
- measurement-notes: cell-based or functional assay
assay-metric: Internalization %, MCF-7, 0.25 µg/ml, 2 h (%)
Numeric answer only, unit % assumed.

What value of measured Internalization %, MCF-7, 0.25 µg/ml, 2 h is listed for 9D7 (antibody, V domains shown, Rabbit-derived clone; LEM construct: VH + rabbit IgG CH1 + human IgG1 CH2-CH3) VH: QSLEESGGDLVQPGASLTLTCKASGFDLNNYSILWVRQAPGKGLEWIGCIYISGGSTYYANWAKGRFAISKTSSTTVTLQMTSLTAADTATYFCARDDGTASYYLNLWGPGTLVTVSS VL: YDMTQTPASVSEPVGGTVTIKCQASEDIYKLLAWYQQKPGQPPKLLIYAASDLESGVPSRFKGRGSGTDYTLTISDLECADAATYYCQQAYTIGNIDNSFGGGTEVVVK ?
75
